Test system: MDA-MB-231 breast
Protocol: NCI tumour cell line growth inhibition, 48 h; in the data active = GI50 below about 0.43 µM; inactive = the rest
Write down the outcome that applies. Available outcomes: active, inactive

What did this assay record as the result for Cc1nc2ccccc2c(/C=C/c2ccccc2)c1C(=O)/C=C/c1ccc(C(F)(F)F)cc1 ?
inactive

What did this assay record as the result for O=C(Nc1ccccc1Cl)c1ccc(NC2=C(Cl)C(=O)N(C3CCCCC3)C2=O)cc1 ?
inactive

What did this assay record as the result for C#Cc1cccc(NC(=O)c2cccc(NC(=O)CCl)c2)c1 ?
inactive

What did this assay record as the result for CCOC(=O)Nc1ccc2c(c1)C(=O)N(CC)c1ccccc1O2 ?
active

What did this assay record as the result for COc1cc(NS(C)(=O)=O)ccc1Cc1c2ccccc2nc2ccccc12 ?
inactive

What did this assay record as the result for FC(F)(F)c1cc(NC(=S)N2c3ccccc3-n3cccc3C2c2cccnc2)cc(C(F)(F)F)c1 (configuration not stated) ?
inactive

Further cases:
What did this assay record as the result for O=[N+]([O-])c1ccc(N=Nc2c(Cl)cc(O)cc2Cl)cc1 ?
inactive

What did this assay record as the result for O=c1oc2ccc(Cl)cc2c(=O)n1-c1ccc(F)cc1F ?
inactive

---

System: SF-539 CNS
Protocol: NCI tumour cell line growth inhibition, 48 h
Quantity kind: TGI (µM)
Answer in µM, number only, no unit symbol.

Hello, I am looking for reported TGI with SF-539 CNS for CSc1ccc2c(cc1=O)C(NC(=O)c1ccccc1)CCc1cc(O)c(O)c(O)c1-2 (centres undefined) . Could you help?
10.6

Moving on to another molecule below.
Hello, I am looking for reported TGI with SF-539 CNS for COc1cc2c3c(n(CCCn4cncn4)c(=O)c2cc1OC)-c1cc2c(cc1C3=O)OCO2 . Could you help?
19.6

---

System: MOLT-4 leukemia
Protocol: NCI tumour cell line growth inhibition, 48 h
Quantity kind: GI50

Hello, I am looking for reported GI50 with MOLT-4 leukemia for C#CCOC(=O)/C=C/C(=O)Oc1ccc2c(C)cc(=O)oc2c1 . Could you help?
> 100000 nM

Hello, I am looking for reported GI50 with MOLT-4 leukemia for O=C(c1ccc2ccccc2c1)c1c(C(F)(F)F)n([O-])c2cc(C(F)(F)F)ccc2[n+]1=O . Could you help?
1490 nM

Hello, I am looking for reported GI50 with MOLT-4 leukemia for CCC[CH2][Sn]1([CH2]CCC)[O]CC[S]1 . Could you help?
370 nM

Further cases:
Hello, I am looking for reported GI50 with MOLT-4 leukemia for CCCS(=O)(=O)Nc1cccc(Nc2ncnc3cc(NC(=O)CCl)ccc23)c1Cl . Could you help?
1040 nM

Hello, I am looking for reported GI50 with MOLT-4 leukemia for [Co].[O-]c1cccnc1C=Nc1ccccc1.[OH3+] . Could you help?
78300 nM

Hello, I am looking for reported GI50 with MOLT-4 leukemia for O=C1c2ccccc2C(=O)c2c1oc1c2c(=O)[nH]c2ccc(Cl)cc21 . Could you help?
435 nM

Hello, I am looking for reported GI50 with MOLT-4 leukemia for C/C(CC(C)(C)N1CC1)=N\NC(=O)Nc1cccc2ccccc12 . Could you help?
2590 nM

Hello, I am looking for reported GI50 with MOLT-4 leukemia for COc1ccc2nc3c(cc2c1)C(=O)CC(c1ccccc1)C3 (stereo unspecified) . Could you help?
364 nM

Hello, I am looking for reported GI50 with MOLT-4 leukemia for COc1ccc(C2=NN(C(C)=O)C(c3ccc(Oc4ccnc5cc(Cl)ccc45)c(OC)c3)C2)cc1 (stereo unspecified) . Could you help?
> 100000 nM

Hello, I am looking for reported GI50 with MOLT-4 leukemia for CC[C@H]1CCC/C=C/[C@@H]2C[C@H](O)C[C@H]2[C@H](O)/C=C/C(=O)O1 . Could you help?
35.4 nM

---

Test system: HL-60(TB) leukemia
Protocol: NCI tumour cell line growth inhibition, 48 h; in the data active means GI50 below about 0.43 µM; inactive means the rest
Write down the outcome that applies. Available outcomes: active, inactive

Consider the worked cases shown below.
What did this assay record as the result for CCOC(=O)c1c2c(n3ccc(NC(=O)CCN4CCCCC4)cc13)C(=O)c1ncccc1C2=O ?
inactive

What did this assay record as the result for Cc1ccc(-c2nc(/C=N/Nc3cc(C)nc4ccc(Br)cc34)c(C)o2)cc1 ?
inactive

What did this assay record as the result for C#CCOC(=O)/C=C/C(=O)Oc1ccc2c(C)cc(=O)oc2c1 ?
inactive

What did this assay record as the result for CCCCc1n(Cc2ccc3ccccc3n2)cc[n+]1Cc1ccc2ccccc2n1 ?
active

What did this assay record as the result for CCOC(=O)Nc1ccc2c(c1)C(=O)N(CC)c1ccccc1O2 ?
active

Further cases:
What did this assay record as the result for S=C1SCN(Cc2ccccc2)CN1Cc1ccccc1 ?
inactive

What did this assay record as the result for COc1cc(NS(C)(=O)=O)ccc1Cc1c2ccccc2nc2ccccc12 ?
active

What did this assay record as the result for COc1ccc(C2CC(c3ccc(OC)cc3O)=NN2c2ccc(S(N)(=O)=O)cc2)cc1 (centres undefined) ?
inactive

---

Test system: 786-0 renal
Protocol: NCI tumour cell line growth inhibition, 48 h
Quantity kind: TGI

Dear colleague, I am looking for the recorded TGI of the following molecule: O=c1[nH]nc(CNc2ccc(Cl)cc2Cl)c2ccccc12
41.3 µM

Dear colleague, I am looking for the recorded TGI of the following molecule: CC(=O)OC1=C2CC[C@@H]3C(CC[C@@]4(C)C3CC[C@@H]4OC(C)=O)[C@@]2(C)CC(C#N)C1=O (some centres undefined)
> 100 µM

Dear colleague, I am looking for the recorded TGI of the following molecule: CC[C@]12C=CCN3CC[C@@]4(c5ccc(OC)cc5N(C)[C@H]4[C@@](O)(C(=O)OC)[C@@H]1OC(=O)CCC(=O)O[C@H]1CC[C@H]4[C@@H]5CC[C@H]6CC(=O)CC[C@]6(C)[C@H]5CC[C@]14C)[C@@H]32
> 100 µM

Further cases:
Dear colleague, I am looking for the recorded TGI of the following molecule: Fc1ccc(-c2ncn(CCCN3CCOCC3)c2-c2ccncc2)cc1
> 25 µM

---

Tested on: RPMI-8226 leukemia
Protocol: NCI tumour cell line growth inhibition, 48 h; in the data active means GI50 below about 0.43 µM; inactive means the rest
Write down the outcome that applies. Available outcomes: active, inactive

Consider the worked cases shown below.
What did this assay record as the result for O=C1c2ccccc2C(=O)c2c1oc1c2c(=O)[nH]c2ccc(Cl)cc21 ?
active

What did this assay record as the result for Cc1c[nH]c(=O)n(Cc2nnc(CCC(=O)c3nc4ccccc4[nH]3)o2)c1=O ?
active

What did this assay record as the result for [Co].[O-]c1cccnc1C=Nc1ccccc1.[OH3+] ?
inactive

What did this assay record as the result for CC[O-].CC[O-].O=C([CH-]C(=O)c1ccccc1)CCCCCCC(=O)[CH-]C(=O)c1ccccc1.[Ti+4] ?
inactive

What did this assay record as the result for C#Cc1cccc(NC(=O)c2cccc(NC(=O)CCl)c2)c1 ?
inactive

What did this assay record as the result for CC1(C)N=c2cc3c(cc2N1c1ccc(Cl)cc1)=Nc1ccccc1N3c1ccc(Cl)cc1 ?
inactive

Further cases:
What did this assay record as the result for O=c1cc(-c2ccccc2)oc2c1ccc1ccccc12 ?
inactive

What did this assay record as the result for O=C(Nc1n[nH]c2nc(-c3ccc(O)cc3)c(Br)cc12)C1CC1 ?
inactive

What did this assay record as the result for CC1OC(CC(=O)O)Cc2c1c(O)c1c(O)cc(-c3cc(=O)c4c(=O)c5c(c(=O)c=4c3=O)CC(CC(=O)O)OC5C)c(O)c1c2O (centres undefined) ?
inactive

---

Quick list: TGI per entry.
System: UACC-257 melanoma
Protocol: NCI tumour cell line growth inhibition, 48 h

Would you please look over these solved cases?
Dear colleague, I am looking for the recorded TGI of the following compound: CC(C)CNCCc1ccccn1
> 100 µM

Dear colleague, I am looking for the recorded TGI of the following compound: N#Cc1ccc(OCCSCCCCCCCCCCSCCOc2ccc(C#N)cc2)cc1
> 100 µM

Dear colleague, I am looking for the recorded TGI of the following compound: O=C(Nc1ccccc1Cl)c1ccc(NC2=C(Cl)C(=O)N(C3CCCCC3)C2=O)cc1
15 µM

Dear colleague, I am looking for the recorded TGI of the following compound: Cc1ccc(/C=N/NS(=O)(=O)c2ccccc2)cc1C
> 100 µM

Dear colleague, I am looking for the recorded TGI of the following compound: CC1=C[C@H]([C@H]2C=C(C)C(C(N)=O)=CN2Cc2c(Cl)cccc2Cl)N(Cc2c(Cl)cccc2Cl)C=C1C(N)=O
> 75 µM

Dear colleague, I am looking for the recorded TGI of the following compound: CC1(O)C2(c3ccccc3)CCC[N+]1(C)CC2 (stereo not given)
> 100 µM

Dear colleague, I am looking for the recorded TGI of the following compound: OCCN(CCO)c1nc(N2CCCCC2)c2nc(N(CCO)CCO)nc(N3CCCCC3)c2n1
> 100 µM

Dear colleague, I am looking for the recorded TGI of the following compound: COc1ccc2c(=O)c3c([nH]c2c1)OCC3=O
> 100 µM

Dear colleague, I am looking for the recorded TGI of the following compound: Cn1c2ccccc2c2c3c(c4c5ccccc5n(C5OC(CO)C(O)C(O)C5O)c4c21)C(=O)OC3=O (stereo not given)
> 100 µM

Dear colleague, I am looking for the recorded TGI of the following compound: CC(=O)Nn1cnc(C(=N)C#N)c1N
> 100 µM

Further cases:
Dear colleague, I am looking for the recorded TGI of the following compound: CN(C)CCN(C)C(=O)c1cccc2cccc(C(=O)O)c12
> 100 µM

Dear colleague, I am looking for the recorded TGI of the following compound: C[C@]12CCc3nonc3C1CC[C@@H]1C2CC[C@@]2(C)C1CC[C@@H]2O (stereo not given in full)
> 100 µM

Dear colleague, I am looking for the recorded TGI of the following compound: Cc1nc(C)c(N2CCN(S(N)(=O)=O)CC2)c(=O)[nH]1
> 100 µM

Dear colleague, I am looking for the recorded TGI of the following compound: NNc1nc2ccccc2o1
> 100 µM

Dear colleague, I am looking for the recorded TGI of the following compound: O=C(Nc1cccc(C(F)(F)F)c1)c1ccc(NC2=C(Cl)C(=O)N(Cc3ccccc3)C2=O)cc1
58 µM

meta.source: PubChem BioAssay (NCI)
